Target: human recombinant BACE1 (Homo sapiens (Human))
Sequence (P56817 46-501): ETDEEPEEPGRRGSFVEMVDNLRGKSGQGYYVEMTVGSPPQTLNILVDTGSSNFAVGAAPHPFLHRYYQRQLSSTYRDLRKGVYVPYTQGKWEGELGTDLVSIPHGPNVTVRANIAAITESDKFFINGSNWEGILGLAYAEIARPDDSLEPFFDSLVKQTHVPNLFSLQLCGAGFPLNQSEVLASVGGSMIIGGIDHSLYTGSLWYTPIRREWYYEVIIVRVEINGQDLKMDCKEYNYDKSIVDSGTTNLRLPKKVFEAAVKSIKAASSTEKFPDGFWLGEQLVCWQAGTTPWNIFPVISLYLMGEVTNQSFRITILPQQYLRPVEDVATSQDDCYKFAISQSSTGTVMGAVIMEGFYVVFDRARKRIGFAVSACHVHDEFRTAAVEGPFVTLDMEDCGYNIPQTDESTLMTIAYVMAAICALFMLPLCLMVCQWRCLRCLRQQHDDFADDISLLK
Assay: In vitro enzymatic BACE1 FRET assay
Assay type: biochemical
Settings: read-out: IC50 IP (μM) BACE1 enzyme
parameter: IC50 (µM)

{"molecule": "C#CCOc1cnc2c(Nc3cnc(F)c([C@@]4(C)N=C(N)S[C@@]5(CF)C[C@H]54)c3)ncnc2c1", "parameter": "IC50", "value": 0.00102}
{"molecule": "NC1=N[C@](CF)(c2cc(NC(=O)c3ccc(Cl)cn3)ccc2F)[C@H]2C3CSC[C@@]32S1 (stereo partly drawn)", "parameter": "IC50", "value": 0.01}
{"molecule": "C#CCOc1cnc2c(Nc3cnc(F)c([C@@]4(C)N=C(N)S[C@@]5([C@H](O)C(F)(F)F)C[C@H]54)c3)ncnc2c1", "parameter": "IC50", "value": 0.00165}
{"molecule": "C[C@]1(c2cc(NC(=O)c3ccc(Cl)cn3)ccc2F)N=C(N)S[C@@]2(C(=O)NC3CC3)C[C@H]21", "parameter": "IC50", "value": 0.00075}

a = C[C@@H](O)[C@]12C[C@H]1[C@@](C)(c1cc(Nc3ncnc4cc(C#N)cnc34)cc(F)c1F)N=C(N)S2
b = C[C@]1(c2cc(Nc3ncnc4cc(OCc5ncco5)cnc34)cc(F)c2F)N=C(N)S[C@@]2(CF)C[C@H]21
c = COC[C@]12C[C@H]1[C@@](C)(c1cc(NC(=O)c3cnc(OCC4CCC4)cn3)ccc1F)N=C(N)S2
d = C#CCOc1cnc(C(=O)Nc2cc(F)c(F)c([C@@]3(C)N=C(N)S[C@@]4(S(C)(=O)=O)C[C@H]43)c2)cn1
e = C[C@]1(c2cc(NC(=O)c3ccc(Cl)cn3)cnc2F)N=C(N)S[C@H]2C[C@H]21
Endpoint returns the given molecules ordered by ascending IC50. Output spec: labels arranged per the requested ranking.
d, b, c, a, e

====

Target: Recombinant Cat D (Homo sapiens (Human))
Sequence (P07339 65-412): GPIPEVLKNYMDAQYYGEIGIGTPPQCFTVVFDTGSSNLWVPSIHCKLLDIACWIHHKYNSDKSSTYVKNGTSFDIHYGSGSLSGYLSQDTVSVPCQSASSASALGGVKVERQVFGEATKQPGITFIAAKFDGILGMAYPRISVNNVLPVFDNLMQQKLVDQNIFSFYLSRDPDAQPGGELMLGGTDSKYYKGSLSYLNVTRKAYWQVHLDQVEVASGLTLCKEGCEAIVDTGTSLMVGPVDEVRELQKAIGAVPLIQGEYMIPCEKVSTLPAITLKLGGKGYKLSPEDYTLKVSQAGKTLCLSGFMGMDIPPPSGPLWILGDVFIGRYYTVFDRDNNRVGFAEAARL
Test: In vitro enzymatic Cathepsin D (Cat D) FRET assay
Assay type: biochemical
Conditions: read-out: IC50 IP (μM) CatD
parameter: IC50 (µM)

# example entries with known answers
{"compound": "C#CCOc1cnc(C(=O)Nc2ccc(F)c([C@@]3(C)N=C(N)S[C@@]4(C(F)F)C[C@@H]34)c2)cn1 [Example 820]", "uom": "µM", "IC50": 60.4}
{"compound": "C#CCOc1cnc2c(Nc3ccc(F)c([C@@]4(C)N=C(N)S[C@@]5(C(F)F)C[C@@H]45)c3)nccc2n1 [Example 816]", "uom": "µM", "IC50": 73.6}
{"compound": "C#CCOc1cnc2c(Nc3cc(F)c(F)c([C@@]4(C)N=C(N)S[C@@]5(COC)C[C@H]54)c3)ncc(F)c2c1 [Example 951]", "uom": "µM", "IC50": 915}
{"compound": "C#C[C@H](C)Oc1cnc(C(=O)Nc2ccc(F)c([C@@]3(C)N=C(N)S[C@@]4(COC)C[C@H]43)c2)c(C)n1 [Example 621]", "uom": "µM", "IC50": 710}
{"compound": "CC(=O)[C@]12C[C@H]1[C@@](C)(c1cc(Nc3ncnc4cc(C#N)cnc34)cc(F)c1F)N=C(N)S2 [Example 904]", "uom": "µM", "IC50": 380}
{"compound": "C[C@]1(c2cc(Nc3ncnc4cc(OCc5ncco5)cnc34)cnc2F)N=C(N)S[C@@]2([C@H](O)C(F)(F)F)C[C@H]21 [Example 667]", "uom": "µM", "IC50": 1160}

I = CNC(=O)/C=C/[C@]12C[C@H]1[C@@](CF)(c1cc(NC(=O)c3ccc(Cl)cn3)ccc1F)N=C(N)S2 [Example 760]
II = CN(C)C(=O)/C=C/[C@]12C[C@H]1[C@@](CF)(c1cc(NC(=O)c3ccc(Cl)cn3)ccc1F)N=C(N)S2 [Example 761]
III = CC#CCCOc1cnc(C(=O)Nc2cc(F)c(F)c([C@@]3(C)N=C(N)S[C@@]4(COC)C[C@H]43)c2)cn1 [Example 1059]
Endpoint returns the given compounds ordered by ascending IC50. Output spec: labels arranged per the requested ranking.
II, I, III
(II: 364 µM, I: 779 µM, III: 1320 µM)

a = COC[C@]12C[C@H]1[C@@](C)(c1cc(NC(=O)c3ncc(O[C@H](C)c4ncco4)cc3C)cc(F)c1F)N=C(N)S2 [Example 688]
b = C#CCOc1cnc(C(=O)Nc2ccc(F)c([C@@]3(CF)N=C(N)S[C@@]4(c5cnco5)C[C@@H]34)c2)cn1 [Example 780]
Which value of IC50 is numerically greater: that of a or that of b ? Your choice should be expressed through its label.
a
(a: 1320 µM, b: 116 µM)

The measurements presented in this section are drawn from patent US20160046618A1.
